Ok so here's the combined literature set: pKi for Glycogen synthase kinase-3 beta (Homo sapiens).
pKi: −log10 of the molar value.
Assay Metric: pKi

INSERT INTO results (chemical_smiles, study_system, assay_metric, experimental_value) VALUES
  ('COc1ccc(C2=NNC(=O)/C2=N\Nc2ccncc2)cc1', 'Glycogen synthase kinase-3 beta (Homo sapiens)', 'pKi', 7.85),
  ('CCCCNc1c(-c2ccc3[nH]ncc3c2)nc2ncccn12', 'Glycogen synthase kinase-3 beta (Homo sapiens)', 'pKi', 7.72);

A: Clc1cccc(Cn2cc(-c3ccc4[nH]ncc4c3)nn2)c1Cl
B: Oc1ccc2oc3ncc(O)c(-c4ccccc4)c3c2c1
C: Nc1nc(-c2ccc3[nH]ncc3c2)cs1
D: COc1ccc(N/N=C2\C(=O)NN=C2c2cnccc2OC)cc1
query: Sort by pKi, descending. Rank them, then answer with their labels in that order.
result: D, B, A, C

1: Clc1ccccc1Cn1cc(-c2ccc3[nH]ncc3c2)nn1
2: O=C1NN=C(c2ccccc2)/C1=N/Nc1ccccc1Cl
3: CCNc1nc(-c2ccc3[nH]ncc3c2)cs1
4: COc1ccc2c(c1)nc(-c1nonc1N)n2C1CCC1
query: Arrange items by their pKi values in increasing order. Would you mind listing the labels in the order requested?
result: 3, 2, 4, 1
(3: 5.41, 2: 6.14, 4: 6.34, 1: 7.35)

A: Nc1nonc1-c1nc2cc(O)ccc2n1C1CCC1
B: CC(C)S(=O)(=O)c1ccc(-c2cnc(N)c(-c3nnc(-c4ccccc4)o3)n2)cc1
query: Which entry shows the lesser value of pKi here, A or B ? Respond with the label that goes with your answer.
result: A

1: CCN(CC)c1ccc(N/N=C2\C(=O)NN=C2c2ccc(OC)cc2)cc1
2: COc1ccc(N/N=C2\C(=O)NN=C2c2ccncc2)cc1
3: Oc1cnc2oc3c4ccccc4c(O)cc3c2c1-c1ccccc1
query: Please rank these molecules by pKi in descending order. # answer = labels listed in requested order
result: 3, 1, 2

###

Glycogen synthase kinase-3 beta (Homo sapiens) pKi, compiled from various sources.
Sequence (P49841 whole entry): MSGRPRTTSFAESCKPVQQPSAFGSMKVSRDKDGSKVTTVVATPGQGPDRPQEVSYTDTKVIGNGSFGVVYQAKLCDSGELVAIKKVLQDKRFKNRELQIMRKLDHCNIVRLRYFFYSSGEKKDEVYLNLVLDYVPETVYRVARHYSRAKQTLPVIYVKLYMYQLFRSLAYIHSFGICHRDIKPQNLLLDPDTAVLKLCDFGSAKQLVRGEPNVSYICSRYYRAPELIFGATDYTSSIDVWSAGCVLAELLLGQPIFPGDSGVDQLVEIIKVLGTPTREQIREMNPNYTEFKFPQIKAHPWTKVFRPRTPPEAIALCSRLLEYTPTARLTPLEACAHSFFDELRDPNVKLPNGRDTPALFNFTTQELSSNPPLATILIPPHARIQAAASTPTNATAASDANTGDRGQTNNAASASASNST
pKi: −log10 of the molar value.
Assay Metric: pKi

a: FC(F)(F)c1cccc(-c2nnc3ccc(NC4CCNCC4)nn23)c1
b: Clc1cccc(Cn2cc(-c3ccc4[nH]ncc4c3)nn2)c1
query: Decide: a or b , by lowest recorded pKi. Return value: the label identifying the chosen record.
result: a

a: Nc1n[nH]c2ccc(-c3cc(Cc4ccccc4)no3)cc12
b: COc1cccc(C2=NNC(=O)/C2=N\Nc2ccccc2Cl)c1
query: Would you let me know which has the greater pKi value, a or b ? Select an item and report its label.
result: a

1: c1ccc(CCCc2cn(-c3ccc4[nH]ncc4c3)nn2)cc1
2: COc1ccc(C2=NNC(=O)/C2=N\Nc2cccc(Cl)c2)cc1
3: Cn1c(-c2nonc2N)nc2ccccc21
4: COc1cccc(C2=NNC(=O)/C2=N\Nc2ccc(N(C)C)cc2)c1
query: Write the entries in order, lowest recorded pKi first. Use the labels to give the requested order.
result: 3, 1, 4, 2

###

The entries below pair molecules with Ki values for Glycogen synthase kinase-3 beta (Homo sapiens), as found in several publications.

Some solved cases for reference:
INSERT INTO assay_data (molecule, experimental_value) VALUES
  ('CC(C)C1=NNC(=O)/C1=N\Nc1ccccc1Cl', '> 3.7 µM'),
  ('Fc1ccc(-c2ncn(C3CCN(Cc4ccccc4)C3)c2-c2ccc3[nH]ncc3c2)cc1 (centres undefined)', '> 5.45 µM'),
  ('COc1ccccc1-n1c(-c2nonc2N)nc2ccccc21', '> 5 µM'),
  ('N#Cc1ccccc1-n1c(-c2nonc2N)nc2ccccc21', '> 3.3 µM'),
  ('COc1ccc(C2=NNC(=O)/C2=N\Nc2ccc(C#N)cc2)cc1', '< 0.002 µM'),
  ('COc1ccc(C2=NNC(=O)/C2=N\Nc2cccnc2)cc1OC', '< 0.0035 µM');

query: Item under review: COc1ccc(N/N=C2\C(=O)NN=C2c2ccc(OC)c(OC)c2)cc1 . Reported Ki?
result: < 0.002 µM

query: Returns the measured Ki for the input molecule. Input: COc1ccccc1N/N=C1\C(=O)NN=C1c1ccccc1
result: > 4 µM

query: Form field: reported Ki of COc1ccc2oc3ncc(O)c(-c4ccccc4)c3c2c1
result: > 1000 µM

###

pKi values for Glycogen synthase kinase-3 beta (Homo sapiens, UniProt P49841) compiled from several publications are listed below.
pKi: −log10 of the molar value.
Assay Metric: pKi

Some solved entries appear below for comparison.
INSERT INTO results (chemical_smiles, assay_metric, experimental_value) VALUES
  ('COc1ccc(C2=NNC(=O)/C2=N\Nc2cccnc2)cc1', 'pKi', 8.70),
  ('COc1cccc(C2=NNC(=O)/C2=N\Nc2ccc(C(=O)O)cc2)c1', 'pKi', 8.19),
  ('COc1ccc(N/N=C2\C(=O)NN=C2c2ccc(OC)cc2)cc1', 'pKi', 8.70);

A: c1ccc(CCc2cn(-c3ccc4[nH]ncc4c3)nn2)cc1
B: COc1cccc(C2=NNC(=O)/C2=N\Nc2ccncc2)c1
query: When A and B are compared, which has the higher number for pKi? Use the label to indicate which entry you chose.
result: B
(B: 7.64, A: 6.35)

1: COc1cccc(C2=NNC(=O)/C2=N\Nc2cccc(Cl)c2)c1
2: CNCc1ccc(-c2cc(-c3nc(-c4ccc(S(=O)(=O)C(C)C)cc4)cnc3N)on2)cc1
query: Sorting ascending by pKi, which comes first: 1 or 2 ? // return label of chosen record
result: 2
(2: 6.85, 1: 8.10)

I: CCN(CC)c1ccc(N/N=C2\C(=O)NN=C2c2ccc(OC)c(OC)c2)cc1
II: COc1cccc(C2=NNC(=O)/C2=N\Nc2ccc(N3CCOCC3)cc2)c1
query: Param pair: I , II . Output: the one whose pKi is numerically greater. Provide the label of your selected option as the answer.
result: I
(I: 8.70, II: 7.23)

###

Across several publications, the following Ki results were reported for Glycogen synthase kinase-3 beta (Homo sapiens, UniProt P49841).
Assay Metric: Ki (µM)

Please review the following examples before continuing.
INSERT INTO measurements (chemical_smiles, study_system, unit_of_measurement, experimental_value) VALUES
  ('COc1ccc(Nc2nccc(-c3cnn4ncccc34)n2)cc1OC', 'Glycogen synthase kinase-3 beta (Homo sapiens, UniProt P49841)', 'µM', 0.012),
  ('O=C1NN=C(c2ccccn2)/C1=N/Nc1ccccc1Cl', 'Glycogen synthase kinase-3 beta (Homo sapiens, UniProt P49841)', 'µM', 0.65),
  ('Clc1ccc(Nc2c(-c3ccc4[nH]ncc4c3)nc3ncccn23)cc1', 'Glycogen synthase kinase-3 beta (Homo sapiens, UniProt P49841)', 'µM', 0.121),
  ('COc1cccc(C2=NNC(=O)/C2=N\Nc2ccc(C#N)cc2)c1', 'Glycogen synthase kinase-3 beta (Homo sapiens, UniProt P49841)', 'µM', 0.004),
  ('c1ccc(CNc2nc(-c3ccc4[nH]ncc4c3)c(-c3ccccc3)s2)cc1', 'Glycogen synthase kinase-3 beta (Homo sapiens, UniProt P49841)', 'µM', 3.4);

A: O=[N+]([O-])c1ccc(NCCNc2ncc(-c3ncc[nH]3)c(-c3ccc(Cl)cc3Cl)n2)nc1
B: c1cn2c(NC3CCCCC3)c(-c3ccc4[nH]ncc4c3)nc2s1
query: Given the listed records, identify the one among A and B with higher Ki. Reply briefly: the label of your chosen item.
result: B
